test system: NCI-H226 lung; assay: NCI tumour cell line growth inhibition, 48 h
Kindly supply the reported GI50 values for the records listed here.

GI50 in this record for "Cc1cn2c(/C=C3/C(=O)Nc4ccc(Cl)cc43)c(C)nc2s1" : 11 µM

GI50 in this record for "Cc1cc(N)cc(C)c1-c1c(Br)cc(N)cc1Br" : 9.43 µM

GI50 in this record for CNCCN(C)Cc1cn[nH]c1-c1ccc(OC2CC(OCCC3CCOCC3)C2)cc1 (stereo not given) : > 100 µM

GI50 in this record for "O=C(Nc1ccccc1)Nc1ccc(Cl)c(Cl)c1" : 3.06 µM

GI50 in this record for "O=C1/C(=C/c2ccccc2[N+](=O)[O-])COc2ccc(O)c(O)c21" : 3.97 µM

GI50 in this record for "N[C@@H](CSSC[C@H](N)C(=O)N1CCn2cc(-c3ccccc3)nc2[C@@H]1CC1CCCCC1)C(=O)N1CCn2cc(-c3ccccc3)nc2[C@@H]1CC1CCCCC1" : 2.02 µM

GI50 in this record for "Cc1cc2c(cc1Cl)N1C(=O)NS(=O)(=O)N=C1NS2(=O)=O" : > 100 µM

GI50 in this record for "O=C(c1ccco1)c1c(C(F)(F)F)n([O-])c2ccc(F)cc2[n+]1=O" : 5.38 µM

GI50 in this record for COc1cc(NC(C)CCCN2C(=O)c3ccccc3C2=O)c2ncccc2c1OC (stereo not given) : 33.3 µM

GI50 in this record for "CNCCNc1nc2ccccc2c2c(=O)c3cccc(C)c3sc12" : 7.19 µM
